System: Streptococcus pneumoniae
Experiment: Antibacterial activity against Streptococcus pneumoniae ATCC 49619 by broth microdilution method
Assay type: functional
Below, each entry is listed alongside its reported MIC90.
The reply should contain only the number, in µg/mL.

Answered cases to consult:
CC1(C)S[C@@H]2[C@H](NC(=O)Cc3ccccc3)C(=O)N2[C@H]1C(=O)O : 2
COc1c(N2CCC/C(=C(\F)CN)C2)c(F)cc2c(=O)c(C(=O)O)cn(C3CC3)c12 : 0.12
CC[C@H]1OC(=O)[C@H](C)[C@@H](O[C@H]2C[C@@](C)(OC)[C@@H](O)[C@H](C)O2)[C@H](C)[C@@H](O[C@@H]2O[C@H](C)C[C@H](N(C)C)[C@H]2O)[C@](C)(O)C[C@@H](C)C(=O)[C@H](C)[C@@H](O)[C@]1(C)O : 16
CO/N=C1\CN(c2nc3c(cc2F)c(=O)c(C(=O)O)cn3C2CC2)CC1CN (stereo not given) : 0.5

Now, please, on to the next molecule.
// MIC90 lookup, molecule = COc1c(N2C[C@@H]3CCCN[C@@H]3C2)c(F)cc2c(=O)c(C(=O)O)cn(C3CC3)c12 , result: 4

* * *

Assay: Plasma protein binding in rat infected with gram-positive bacteria
Assay type: ADME, cell-free
Settings: read-out: PPB (converted)
MEASURE_NAME: fraction unbound
No unit in the answer, please; the number alone is enough.

// fraction unbound value for COc1c(N2CCC/C(=C(\F)CN)C2)c(F)cc2c(=O)c(C(=O)O)cn(C3CC3)c12 : 0.44

* * *

System: Moraxella catarrhalis
Assay: Antibacterial activity against Moraxella catarrhalis by broth microdilution method
Format: functional
MEASURE_NAME: MIC50

Documented MIC50 of O=C(O)c1cn(C2CC2)c2cc(N3CCNCC3)c(F)cc2c1=O [CIPROFLOXACIN] : 0.06 µg/mL

GET /value?item= COc1c(N2CCC/C(=C(\F)CN)C2)c(F)cc2c(=O)c(C(=O)O)cn(C3CC3)c12 [ACORAFLOXACIN] &field=MIC50 returns ≤ 0.015 µg/mL

MIC50 for CO/N=C1\CN(c2nc3c(cc2F)c(=O)c(C(=O)O)cn3C2CC2)CC1CN (centres undefined) [GEMIFLOXACIN] is ≤ 0.015 µg/mL

Measured MIC50, COc1c(N2C[C@@H]3CCCN[C@@H]3C2)c(F)cc2c(=O)c(C(=O)O)cn(C3CC3)c12 [MOXIFLOXACIN] : 0.06 µg/mL

* * *

Test system: Proteus mirabilis
Experiment: Antibacterial activity against Proteus mirabilis by broth microdilution method
Format: functional
MEASURE_NAME: MIC50 (µg/mL)
Quick note: give the figure in µg/mL, leave out the unit.

Worked examples follow.
COc1c(N2CCC/C(=C(\F)CN)C2)c(F)cc2c(=O)c(C(=O)O)cn(C3CC3)c12 : 0.25
CO/N=C1\CN(c2nc3c(cc2F)c(=O)c(C(=O)O)cn3C2CC2)CC1CN (centres undefined) : 0.12
COc1c(N2C[C@@H]3CCCN[C@@H]3C2)c(F)cc2c(=O)c(C(=O)O)cn(C3CC3)c12 : 0.5

MIC50 for O=C(O)c1cn(C2CC2)c2cc(N3CCNCC3)c(F)cc2c1=O is 0.03

Sourced from ChEMBL document CHEMBL1255444
